tested on: Vero E6 cells; details: 4-day test, mock infected Vero E6 cells
recorded-endpoint: CC50 (µM)
The answer is to be given in µM; state only the numeric part.

compound CCN(CCO)CCCC(C)Nc1ccnc2cc(Cl)ccc12 (stereo not shown) [Hydroxychloroquine] , CC50 observed: 67
